tested on: UO-31; assay: NCI tumour cell line growth inhibition, 48 h
Activity calls are given as the source filed them. No stated cut-off is given here; in the data, active = GI50 up to about 1.1 µM and inactive = higher.
Choose the fitting class; nothing outside true (1) = active, false (0) = inactive is accepted.

compound: O=C1CCC2(c3ccc(F)cc3)Nc3cc(Cl)ccc3N12 (configuration not stated)
classLabel: false (0)
--
compound: CC1(C)CC2=C(SC3C=CC=CC3N2)C(=O)C1C(=O)C(N)=O (configuration not stated)
classLabel: false (0)
--
compound: O=Nc1ccc(O)c2ncccc12
classLabel: false (0)

[in] // return assay outcome for `COc1cccc(/C=N/C23CC4CC(CC(C4)C2)C3)c1`
[out] false (0)

[in] # fetch the recorded call for C1COCCOP2(N3CC3)=NP(N3CC3)(=NP(N3CC3)(N3CC3)=N2)OCCOCCO1 (configuration not stated) here
[out] false (0)

[in] Look up the recorded call for `COc1ccc(S(=O)(=O)O)cc1-n1nc(C(=O)Nc2ccccc2)n[n+]1-c1cc(S(=O)(=O)[O-])ccc1OC` in this test.
[out] false (0)

[in] Check the results log: what was the call for `CC(=O)Nc1ccc(C(=O)N2N=C(C)/C(=C/c3ccc(O)cc3)C2=O)cc1` ?
[out] false (0)

[in] Given `COc1ccc([C@@H]2ON(C)[C@H]3CN(C)C(=O)[C@@H]23)cc1` , state the outcome it received in this test.
[out] false (0)

[in] Record request — test call for `O=C(O)c1ccccc1[Se][Se]c1ccccc1C(=O)O`
[out] false (0)

[in] // outcome(item) with item = Cc1nn(C(=O)Cc2ccccc2)c2c1C(c1ccc(O)cc1)SC(=N)N2 (configuration not stated)
[out] false (0)

[in] Please share the test call associated with `C#C[C@]1(O)CC[C@H]2[C@@H]3CCC4=C/C(=N/CCOC(=O)c5cccc6c(=O)c7ccccc7[nH]c56)CC[C@@H]4[C@H]3CC[C@@]21C` .
[out] false (0)

[in] Per the assay record, what outcome was assigned to CCCCCC(/C=C/[C@@H]1[C@H]2CC(=O)O[C@H]2C[C@H]1N1CCOCC1)OC1CCCO1 (some centres not stated) ?
[out] false (0)

[in] Any idea what this test logged for O=C1Sc2ccccc2C(=O)N2CSCC12 (configuration not stated) ?
[out] false (0)

[in] Assay outcome for `COC1=C(C)C(=O)C2=C(C1=O)[C@@H]1[C@@H]3Cc4c(OC(=O)CO)c(C)c(OC)c(O)c4[C@H](CNC(=O)C(C)=O)N3[C@@H](C#N)[C@H](C2)N1C` : what was it?
[out] true (1)

[in] Could you please tell me the result logged for `NCCCN(CCCCN(CCCN)CCCc1ccccc1)CCCc1ccccc1` in this assay?
[out] false (0)

[in] Recorded test outcome, item `CCn1c(SCC(=O)NNC(=S)Nc2ccc(Cl)cc2)nc2ccccc2c1=O`
[out] false (0)

[in] Recorded test call requested for O=C1C2=C(c3ccccc31)C(c1ccc(Cl)cc1)N1C(=O)CCSC1=N2 (configuration not stated)
[out] false (0)

[in] What call does the record list for `COc1ccc(C(=O)c2sc(Nc3ccc(Cl)cc3)nc2N)cc1` ?
[out] false (0)

[in] Tell me the recorded outcome of this test for `CCO/C(Cc1ccc(Cl)cc1)=N/NC(N)=S` .
[out] false (0)

[in] So what was the verdict on `O=C(O)[C@@H]1NC[C@H]2C(Br)=NO[C@H]21` in this test?
[out] false (0)

[in] What outcome does the record of this test show for `CCS/C(=N\c1ccccc1)SC` ?
[out] false (0)

[in] For CC12CCC(C(=O)OC1=O)C(C)(C)O2 (configuration not stated) , what call appears in the results of this test?
[out] false (0)

[in] Each compound tested received a call. Report the one for `N#Cc1c(Cl)cc(C#N)n2c1nc1ccccc12` .
[out] false (0)

[in] I would be grateful if you could indicate the recorded call for `O=C(Nc1c(Cl)cc([N+](=O)[O-])cc1Cl)/C(=N\Nc1cccc(Cl)c1)c1c(O)c2ccccc2oc1=O` .
[out] false (0)

====

tested on: OVCAR-8; assay: NCI tumour cell line growth inhibition, 48 h
The source made the active and inactive calls. No stated cut-off is given here; in the data, active = GI50 up to about 1.1 µM and inactive = higher.
The following compounds are listed with their measured GI50 values.

Recorded results for 3 compounds are shown here.
compound: O=C1[C@H]2ON(c3ccccc3)C(c3ccc(Cl)cc3)[C@H]2C(=O)N1c1ccc(Cc2ccc(N3C(=O)[C@@H]4ON(c5ccccc5)C(c5ccc(Cl)cc5)[C@@H]4C3=O)cc2)cc1 (some centres undefined)
GI50: > 100 µM (inactive)

compound: CC(=N/NC(=S)Nc1c(C)n(C)n(-c2ccccc2)c1=O)/C(C)=N\NC(=S)Nc1c(C)n(C)n(-c2ccccc2)c1=O
GI50: > 100 µM (inactive)

compound: CO[C@H]1CC[C@]2(C)C3=CC[C@@]4(C)C(CC[C@@H]4C(C)CC[C@@H](C)C(C)C)C(=CCC2C1)O3 (some centres undefined)
GI50: > 25 µM (inactive)

We now examine a further compound.
[in] Identify GI50 associated with the compound CC1CN(CCO)CCN1c1ccccc1 (centres undefined)
[out] > 100 µM (inactive)

====

test system: M14; assay: NCI tumour cell line growth inhibition, 48 h
Activity calls are given as the source filed them. Rule as the data show it: active = GI50 up to about 1.1 µM and inactive = higher.
Your response should consist of one outcome taken from active, inactive

Some entries whose results are on file:
compound: CC(=O)Nc1ccc(-c2nc3ccccc3s2)cc1O
target: M14
classLabel: inactive
//
compound: O=C1C=C(Nc2ccc(Br)cc2)c2ccccc2/C1=N/O
target: M14
classLabel: inactive
//
compound: COC(=O)[C@@]1(C)C(=O)CC[C@@H]1C=O
target: M14
classLabel: inactive
//
compound: CCOC(=O)C(NC(=O)CC(C)C)(Nc1ccc(C(F)(F)F)cc1)C(F)(F)F (stereo not given)
target: M14
classLabel: inactive
//
compound: O=C(O)C(Br)Cc1ccc2c(c1)OCO2 (stereo not given)
target: M14
classLabel: inactive
//
compound: O=C(NCCn1ccnn1)Nc1ccccc1
target: M14
classLabel: inactive
//
compound: BrC(/C=N/Nc1nnc(-c2ccccc2)c(-c2ccccc2)n1)C(Br)c1ccccc1 (stereo not given)
target: M14
classLabel: inactive
//
compound: C/C(=N\Nc1nc2ccccc2o1)c1ccncn1
target: M14
classLabel: active

[in] Per the assay record, what outcome was assigned to `O=C(/C=C/c1ccsc1)c1ccc(Cl)cc1` ?
[out] inactive

====

test system: NCI-H460; assay: NCI tumour cell line growth inhibition, 48 h
Active and inactive are the calls of the source. Rule as the data show it: active = GI50 up to about 1.1 µM and inactive = higher.
experimentalEndpoint: GI50

compound: O=C(Nn1c(-c2ccccc2)nc2ccccc2c1=O)c1ccc([N+](=O)[O-])cc1
GI50: > 100 µM (inactive)
--
compound: O=C1C/C(=C/c2ccc(/C=C3/CC(=O)N(c4cccc(Br)c4)C3=O)cc2)C(=O)N1c1cccc(Br)c1
GI50: > 100 µM (inactive)

Let us move to another entry and its GI50.
[in] Hello, please tell me recorded GI50 for this one: BrC(/C=N/Nc1nnc(-c2ccccc2)c(-c2ccccc2)n1)C(Br)c1ccccc1 (stereo not drawn)
[out] 35.2 µM (inactive)

====

system: A549; test: NCI tumour cell line growth inhibition, 48 h
Activity calls are given as the source filed them. Rule as the data show it: active = GI50 up to about 1.1 µM and inactive = higher.
experimentalEndpoint: GI50

[in] Consider the compound `COc1cnc2cc(C(=O)O)c3c([N+](=O)[O-])cccc3c2c1` . State its measured GI50.
[out] > 100 µM (inactive)

[in] Determine its reported GI50: `C#C[C@@]1(O)CCCC2=CC(=O)C[C@]21C`
[out] > 100 µM (inactive)

[in] For the compound `COc1cc(C(=O)O)c(-c2cc3c(cc2C=O)OCO3)c(OC)c1OC` , give its measured GI50 value.
[out] > 10 µM (inactive)

====

test system: HL-60; test: NCI tumour cell line growth inhibition, 48 h
Calls of active or inactive are those of the source. Rule as the data show it: active = GI50 up to about 1.1 µM and inactive = higher.
Form entry, call: pick from t = active, f = inactive

Please review the following examples before continuing.
compound: COC(=O)C[S+]([O-])c1ccccc1 (stereo not drawn)
target: HL-60
classLabel: f
//
compound: O=C(/C=C/c1ccccc1)c1ccc(NCc2nc3ccccc3[nH]2)cc1
target: HL-60
classLabel: f
//
compound: CC1=NC2(CCCCC2)N(Cl)C(=O)C1SC#N (stereo not drawn)
target: HL-60
classLabel: f
//
compound: O=C(c1ccco1)N(C(=O)N1CCN(c2ccccc2)CC1)S(=O)(=O)c1ccccc1
target: HL-60
classLabel: f
//
compound: N#Cc1c(O)n(-c2ccccc2)c(=O)c2c(N)n[nH]c12
target: HL-60
classLabel: f
//
compound: CC1(C)OC[C@@H](C[C@H](O)COCc2ccccc2)O1
target: HL-60
classLabel: f
//
compound: O=C(NN=C1NCCCN1)c1ccco1
target: HL-60
classLabel: f
//
compound: O=C1c2ccccc2C(=O)c2c(NCCNCCO)ccc(O)c21
target: HL-60
classLabel: f

[in] In this assay, the call recorded for `COc1ccc(C(=O)Cn2c(C(=O)/C=C/c3ccco3)nc3ccccc32)cc1` was what?
[out] f

[in] What is the recorded call for this compound in the test? Brc1ccc(C2SCc3nc4ccccc4n32)cc1 (stereo not drawn)
[out] f

[in] Called result for CCOC(=O)C1(C(C)=O)OC(=O)c2cnccc21 (stereo not drawn)
[out] f

[in] Assay outcome for `Oc1cc(-c2ccccc2)nc2cc(Cl)ccc12` : what was it?
[out] t

[in] Hello, I am checking results. What call was entered for `O=C1CC2(CCN(Cc3ccccc3)CC2)C(=O)N1N1CCCCC1` ?
[out] f
